System: Bloodstream T. brucei CA427
Assay: Bloodstream T. brucei cell culture drug susceptibility (Example 4)
Type: cell-based, Trypanosoma brucei
Details: cultured bloodstream T. brucei; read-out: IG50, T. brucei growth
readout label: IC50 (µM)
// return numeric value only (unit: µM, not printed)

Form entry - test system: Bloodstream T. brucei CA427; read-out: IC50; molecule: CCCCCCN(C(=O)CCCCCN1C(=O)NC(c2ccc(-c3ccccc3)cc2)C(C(=O)OCc2ccccc2)=C1C)C(C(=O)NCCCC)c1ccc(OCC(=O)OC)c(C(=O)OC)c1 (stereo not shown) [MAL3-101] 1.5
